system name: ATX (Mus musculus (Mouse), UniProt Q9R1E6)
assay info: Mice serum ATX inhibitory activity (IC50 determination)
pIC50: −log10 of the molar value.
measured metric: pIC50

Examples with answers:
[[record]]
molecule = "Cc1cc(C)cc(C2CN(C)CC23CCN(C(=O)[C@H](NC(=O)c2cc(C(F)(F)F)ccc2F)C(C)C)CC3)c1 (stereo partly shown)"
system_name = "ATX (Mus musculus (Mouse), UniProt Q9R1E6)"
measured_metric = "pIC50"
recorded_value = 7.39

[[record]]
molecule = "CC(C)[C@@H](NC(=O)c1cc(C(F)(F)F)ccc1F)C(=O)N1CCC2(CC1)C(=O)NCC2c1ccc(F)cc1 (stereo partly shown)"
system_name = "ATX (Mus musculus (Mouse), UniProt Q9R1E6)"
measured_metric = "pIC50"
recorded_value = 7.65


(1) CC(C)C[C@@H](NC(=O)c1cc(C(F)(F)F)ccc1F)C(=O)N1CCC2(CC1)CN(C)CC2c1ccc(F)cc1 (stereo partly shown)
(2) CC(C)[C@@H](NC(=O)c1cc(C(F)(F)F)ccc1F)C(=O)N1CCC2(CCN(C)CC2c2ccccc2)CC1 (stereo partly shown)
Query block: Parameter check: reported pIC50 is higher for which label, 1 or 2 ? Answer format: the label of the selected item.
Result block: 1
